- PROTOCOL NOTES: Chemical stability 0.2M NH4OAc at pH 5.0 at 1 mg/ml at room temperature assessed as ratio of Asn-containing cyclic peptides after 24 hrs by HPLC method
- Format: physicochemical
- EXPERIMENTAL CONTEXT: 0.2 M NH4OAc buffer, read-out: Stability
Where a SMILES comes first, the peptide text is derived from it. Bridges are numbered along the chain shown (N, C = ends).
Catalogue of remaining at 24 h, 1 mg/ml readings, one per entry.
Just the number please, in %, no unit attached.

# annotated cases, reported remaining at 24 h, 1 mg/ml shown
N=C(N)NCCC[C@@H]1NC(=O)CNC(=O)[C@H](CC(N)=O)NC(=O)CSC[C@@H](C(N)=O)NC1=O ({CH2CO}-NGRC-NH2; thioether N-4) :: 85
N=C(N)NCCC[C@@H]1NC(=O)CNC(=O)[C@H](CC(N)=O)NC(=O)CSCCC(C(N)=O)NC1=O (single isomer, unassigned) :: 100
N=C(N)NCCC[C@@H]1NC(=O)CNC(=O)[C@H](CC(N)=O)NC(=O)[C@@H]2CCCN2C(=O)CSC[C@@H](C(N)=O)NC1=O ({CH2CO}-PNGRC-NH2; thioether N-5) :: 100
N=C(N)NCCC[C@@H]1NC(=O)CNC(=O)[C@H](CC(N)=O)NC(=O)CCSC[C@@H](C(N)=O)NC1=O :: 100

Kindly review the next compound as well.
Can you look up the measured remaining at 24 h, 1 mg/ml of N=C(N)NCCC[C@@H]1NC(=O)CNC(=O)[C@H](CC(N)=O)NC(=O)[C@H](CCCCN)NC(=O)CSC[C@@H](C(N)=O)NC1=O ({CH2CO}-KNGRC-NH2; thioether N-5) for me?
100
